Source: patent US12263155B2

# ASSAY: Phase 1 single dose escalation pharmacokinetics
# MEASUREMENT_CONDITIONS: male, human, plasma, po, 5 mg
ENDPOINT: concentration at 24 h (ng/mL)
Give the value in ng/mL but do not write ng/mL after it.

Consider O=S1(=O)c2ccc(F)cc2Oc2cc(OCC(F)(F)F)ccc21 . Its measured concentration at 24 h is 0.14

----------
# ASSAY: Plasma and brain CX157 concentrations after oral dosing in rats
# MEASUREMENT_CONDITIONS: male, Sprague-Dawley, rat, brain and plasma, po, 10 mg/kg, mean brain/plasma ratio of CX157 concentrations, 10 mg/kg oral, 18 h
ENDPOINT: Kp at 18 h
Number, no unit, nothing else.

Form: molecule = O=S1(=O)c2ccc(F)cc2Oc2cc(OCC(F)(F)F)ccc21 ; Kp at 18 h = 7.2
